measurement label: melting point

Recorded melting point, per entry:
compound: Cc1cccc2c1ncn2C1=NC(C)(C)C(F)(F)c2ccccc21
result: 142 to 149 °C
//
compound: CC1(C)N=C(n2cnc3cc(Cl)c(Cl)cc32)c2cccc(F)c2C1(C)C
result: 126 to 127 °C
//
compound: Cc1cccc2c1C(=O)C(C)(C)N=C2n1cnc2c(C)c(C)ccc21
result: 145 to 149 °C
//
compound: Cc1cccc2c1C(=O)C(C)(C)N=C2n1cnc2c(C)cccc21
result: 96 to 101 °C
//
compound: CC1(C)N=C(n2cnc3c4c(ccc32)CCC4)c2cccc(F)c2C1(C)C
result: 177 to 178 °C
//
compound: COC(=O)c1cccc2c1ncn2C1=NC(C)(C)C(C)(C)c2c(F)cccc21
result: 178 to 179 °C
//
compound: Cc1ccc2c(ncn2C2=NC(C)(C)Cc3cc(F)ccc32)c1C
result: 143 to 145 °C
//
compound: Cc1ccc2c(ncn2C2=NC3(CC3)C3(CC3)c3ccccc32)c1C
result: 141 to 143 °C

Given item C=Cc1cccc2c1ncn2C1=NC(C)(C)C(C)(C)c2c(F)cccc21 , the value recorded as its melting point is 70 to 71 °C

Given item Cc1cccc2c1ncn2C1=NC(C)(C)C(C)(C)c2c(F)cccc21 [X.011] , the value recorded as its melting point is 118 to 120 °C

Given item Cc1ccc2c(ncn2C2=NC(C)(C)C(=O)c3cc(Cl)ccc32)c1C , the value recorded as its melting point is 196 to 199 °C

###

In this section we review reported melting point values for a set of compounds.

Recorded melting point, per entry:
compound: Cc1cccc2c1ncn2C1=NC2(CCC2)Cc2ccccc21
melting point: 132 to 133 °C
//
compound: Cc1cccc2c1ncn2C1=NC(C)(C)C(C)(C)c2c1ccc(Cl)c2F
melting point: 147 to 151 °C
//
compound: Cc1cccc2c1ncn2C1=NC(C)(C)C(C)(C)c2c1ccc(F)c2F
melting point: 122 to 125 °C
//
compound: Cc1c(Cl)ccc2c1ncn2C1=NC(C)(C)C(C)(C)c2c(F)cccc21
melting point: 102 to 103 °C
//
compound: Cc1ccc2c(ncn2C2=NC(C)(C)C(=O)c3ccccc32)c1C
melting point: 159 to 161 °C

Given item Cc1c(Br)ccc2c1ncn2C1=NC(C)(C)C(C)(C)c2c(F)cccc21 , the value recorded as its melting point is 122 to 124 °C

Given item Cc1c(F)ccc2c1ncn2C1=NC(C)(C)C(=O)c2cc(Cl)ccc21 , the value recorded as its melting point is 133 to 136 °C

Given item CC(C)c1cccc2c1ncn2C1=NC(C)(C)C(C)(C)c2c(F)cccc21 , the value recorded as its melting point is 113 to 114 °C

Given item CCc1cccc2c1ncn2C1=NC(C)(C)C(C)(C)c2c(F)cccc21 , the value recorded as its melting point is 87 to 88 °C

Given item Cc1c(F)ccc2c1ncn2C1=NC(C)(C)C(F)(F)c2ccccc21 , the value recorded as its melting point is 118 to 121 °C

Given item Cc1cccc2c1ncn2C1=NC(C)(C)C(=O)c2ccccc21 , the value recorded as its melting point is 123 to 125 °C

Given item CC1(C)N=C(n2cnc3c(Cl)cccc32)c2ccc(Cl)cc2C1(F)F , the value recorded as its melting point is 197 to 200 °C

Given item Cc1cccc2c1ncn2C1=NC(C)(C)C(=O)c2cc(Cl)ccc21 , the value recorded as its melting point is 129 to 133 °C

Given item Cc1cccc2c1ncn2C1=NC(C)(C)C(C)(C)c2c(F)cccc21 [Compound E-1] , the value recorded as its melting point is 45 to 46 °C

Given item CC1(C)N=C(n2cnc3c(F)c(F)ccc32)c2cccc(F)c2C1(C)C , the value recorded as its melting point is 112 to 114 °C

Given item Cc1cccc2c1ncn2C1=NC(C)(C)Cc2c(Br)cccc21 , the value recorded as its melting point is 52 to 54 °C

Given item CC1(C)N=C(n2cnc3c(Br)cccc32)c2cccc(F)c2C1(C)C , the value recorded as its melting point is 48 to 49 °C

Given item CC1(C)N=C(n2cnc3c(Cl)cccc32)c2cccc(F)c2C1(C)C , the value recorded as its melting point is 50 to 51 °C

Provenance of the data: patent US10966425B2
